Consider the following compounds and their measured AUC at 72 h readings.
experiment: AUC in rat blood at 25 mg/kg, po after 72 hrs; format: ADME, organism-based; parameters: time < 72 hr, dose 25 mg/kg, route oral; settings: whole blood
Report only the number, with the unit µM·h understood.

### Prompt What does the data say about its AUC at 72 h? Entry: `C/C=C/C[C@@H](C)[C@@H](O)[C@H]1C(=O)N[C@@H](CC)C(=O)N(C)[C@H](C)C(=O)N(C)[C@@H]([C@@H](C)CN2CCN(CCOC)CC2)C(=O)N[C@@H](C(C)C)C(=O)N(C)[C@@H](CC(C)C)C(=O)N[C@@H](C)C(=O)N[C@H](C)C(=O)N(C)[C@@H](CC(C)C)C(=O)N(C)[C@@H](CC(C)C)C(=O)N(C)[C@@H](C(C)C)C(=O)N1C`
### Response 58.4

Continuing:
### Prompt What does the data say about its AUC at 72 h? Entry: `C/C=C/C[C@@H](C)[C@@H](O)[C@H]1C(=O)N[C@@H](CC)C(=O)N(C)[C@H](C)C(=O)N(CC)[C@@H](C(C)C)C(=O)N[C@@H](C(C)C)C(=O)N(C)[C@@H](CC(C)C)C(=O)N[C@@H](C)C(=O)N[C@H](C)C(=O)N(C)[C@@H](CC(C)C)C(=O)N(C)[C@@H](CC(C)C)C(=O)N(C)[C@@H](C(C)C)C(=O)N1C`
### Response 22.1

* * *

target: Peptidyl-prolyl cis-trans isomerase A (Homo sapiens, UniProt P62937)
Sequence (P62937 whole entry): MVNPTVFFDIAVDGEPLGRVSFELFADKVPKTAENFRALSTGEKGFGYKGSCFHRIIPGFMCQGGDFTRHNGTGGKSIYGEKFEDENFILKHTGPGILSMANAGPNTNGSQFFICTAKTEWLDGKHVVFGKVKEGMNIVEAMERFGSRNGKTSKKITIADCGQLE
measure_name: pKd
Value format note: pKd is -log10 of concentration (mol/L); just state the number.

### Prompt What does the data say about its pKd? Entry: C/C=C/C[C@@H](C)[C@@H](O)[C@H]1C(=O)N[C@@H](CC)C(=O)N(C)CC(=O)N(C)[C@@H]([C@@H](C)CC)C(=O)N[C@@H](C(C)C)C(=O)N(C)[C@@H](CC(C)C)C(=O)N[C@@H](C)C(=O)N[C@H](C)C(=O)N(C)[C@@H](CC(C)C)C(=O)N(C)[C@@H](CC(C)C)C(=O)N(C)[C@@H](C(C)C)C(=O)N1C [NIM811]
### Response 8.12

* * *

test: AUC in dog plasma at 1 mg/kg, po after 72 hrs; type: ADME, organism-based, Canis lupus familiaris; parameters: time < 72 hr, dose 1 mg/kg, route oral
measure_name: AUC at 72 h (µM·h)
Report only the number, with the unit µM·h understood.

### Prompt What does the data say about its AUC at 72 h? Entry: `C/C=C/C[C@@H](C)[C@@H](O)[C@H]1C(=O)N[C@@H](CC)C(=O)N(C)[C@H](C)C(=O)N(CC)[C@@H](C(C)C)C(=O)N[C@@H](C(C)C)C(=O)N(C)[C@@H](CC(C)C)C(=O)N[C@@H](C)C(=O)N[C@H](C)C(=O)N(C)[C@@H](CC(C)C)C(=O)N(C)[C@@H](CC(C)C)C(=O)N(C)[C@@H](C(C)C)C(=O)N1C`
### Response 0.4

Continuing:
### Prompt What does the data say about its AUC at 72 h? Entry: `C/C=C/C[C@@H](C)[C@@H](O)[C@H]1C(=O)N[C@@H](CC)C(=O)N(C)[C@H](C)C(=O)N(C)[C@@H]([C@@H](C)CN2CCN(CCOC)CC2)C(=O)N[C@@H](C(C)C)C(=O)N(C)[C@@H](CC(C)C)C(=O)N[C@@H](C)C(=O)N[C@H](C)C(=O)N(C)[C@@H](CC(C)C)C(=O)N(C)[C@@H](CC(C)C)C(=O)N(C)[C@@H](C(C)C)C(=O)N1C`
### Response 0.9

* * *

molecular target: Solute carrier organic anion transporter family member 1B1 (Homo sapiens, UniProt Q9Y6L6); assay: Inhibition of OATP1B1 (unknown origin) expressed in CHO cells using 8-fluorescein-cAMP substrate by fluorescent photometry; type: ADME, cell-based
Sequence (Q9Y6L6 whole entry): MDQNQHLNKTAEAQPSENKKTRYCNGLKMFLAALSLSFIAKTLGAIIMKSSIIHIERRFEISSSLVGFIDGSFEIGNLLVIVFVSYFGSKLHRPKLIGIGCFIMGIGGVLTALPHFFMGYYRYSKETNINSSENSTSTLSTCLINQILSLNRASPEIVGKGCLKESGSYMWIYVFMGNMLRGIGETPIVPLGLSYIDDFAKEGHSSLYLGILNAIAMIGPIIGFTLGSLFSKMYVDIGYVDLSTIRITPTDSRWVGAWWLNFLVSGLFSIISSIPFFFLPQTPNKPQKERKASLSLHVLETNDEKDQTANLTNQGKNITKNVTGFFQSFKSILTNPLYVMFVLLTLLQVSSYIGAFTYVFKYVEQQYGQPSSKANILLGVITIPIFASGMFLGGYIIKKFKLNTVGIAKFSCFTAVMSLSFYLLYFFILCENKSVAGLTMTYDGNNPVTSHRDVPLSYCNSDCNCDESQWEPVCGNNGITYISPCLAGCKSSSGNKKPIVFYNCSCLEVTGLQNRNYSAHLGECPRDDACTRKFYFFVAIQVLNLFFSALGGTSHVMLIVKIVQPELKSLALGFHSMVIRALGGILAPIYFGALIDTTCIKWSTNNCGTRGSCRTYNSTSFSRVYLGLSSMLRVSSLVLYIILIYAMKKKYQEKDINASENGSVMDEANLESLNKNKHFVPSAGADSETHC
Consider the following compounds and their measured IC50 readings.
Report only the number, with the unit nM understood.

Consider the reported IC50 for these compounds:
### Prompt What does the data say about its IC50? Entry: `C/C=C/C[C@@H](C)[C@@H](O)[C@H]1C(=O)N[C@@H](CC)C(=O)N(C)[C@H](C)C(=O)N(C)[C@@H]([C@@H](C)CN2CCN(CCOC)CC2)C(=O)N[C@@H](C(C)C)C(=O)N(C)[C@@H](CC(C)C)C(=O)N[C@@H](C)C(=O)N[C@H](C)C(=O)N(C)[C@@H](CC(C)C)C(=O)N(C)[C@@H](CC(C)C)C(=O)N(C)[C@@H](C(C)C)C(=O)N1C`
### Response 6100

### Prompt What does the data say about its IC50? Entry: `C/C=C/C[C@@H](C)[C@@H](O)[C@H]1C(=O)N[C@@H](CC)C(=O)N(C)[C@H](C)C(=O)N(C)[C@@H]([C@H](C)CN2CC3CCC(C2)O3)C(=O)N[C@@H](C(C)C)C(=O)N(C)[C@@H](CC(C)C)C(=O)N[C@@H](C)C(=O)N[C@H](C)C(=O)N(C)[C@@H](CC(C)C)C(=O)N(C)[C@@H](CC(C)C)C(=O)N(C)[C@@H](C(C)C)C(=O)N1C`
### Response 1800

Continuing:
### Prompt What does the data say about its IC50? Entry: `C/C=C/C[C@@H](C)[C@@H](O)[C@H]1C(=O)N[C@@H](CC)C(=O)N(C)[C@H](C)C(=O)N(C)[C@@H]([C@H](C)COC)C(=O)N[C@@H](C(C)C)C(=O)N(C)[C@@H](CC(C)C)C(=O)N[C@@H](C)C(=O)N[C@H](C)C(=O)N(C)[C@@H](CC(C)C)C(=O)N(C)[C@@H](CC(C)C)C(=O)N(C)[C@@H](C(C)C)C(=O)N1C`
### Response 2800

### Prompt What does the data say about its IC50? Entry: `C/C=C/C[C@@H](C)[C@@H](O)[C@H]1C(=O)N[C@@H](CC)C(=O)N(C)[C@H](C)C(=O)N(C)[C@@H]([C@H](C)CN(C)CCOC)C(=O)N[C@@H](C(C)C)C(=O)N(C)[C@@H](CC(C)C)C(=O)N[C@@H](C)C(=O)N[C@H](C)C(=O)N(C)[C@@H](CC(C)C)C(=O)N(C)[C@@H](CC(C)C)C(=O)N(C)[C@@H](C(C)C)C(=O)N1C`
### Response 2000

### Prompt What does the data say about its IC50? Entry: C/C=C/C[C@@H](C)[C@@H](O)[C@H]1C(=O)N[C@@H](CC)C(=O)N(C)[C@H](C)C(=O)N(CC)[C@@H](C(C)C)C(=O)N[C@@H](C(C)C)C(=O)N(C)[C@@H](CC(C)C)C(=O)N[C@@H](C)C(=O)N[C@H](C)C(=O)N(C)[C@@H](CC(C)C)C(=O)N(C)[C@@H](CC(C)C)C(=O)N(C)[C@@H](C(C)C)C(=O)N1C [ALISPORIVIR]
### Response 800

### Prompt What does the data say about its IC50? Entry: `C/C=C/C[C@@H](C)[C@@H](O)[C@H]1C(=O)N[C@@H](CC)C(=O)N(C)[C@H](C)C(=O)N(C)[C@@H]([C@H](C)CC#N)C(=O)N[C@@H](C(C)C)C(=O)N(C)[C@@H](CC(C)C)C(=O)N[C@@H](C)C(=O)N[C@H](C)C(=O)N(C)[C@@H](CC(C)C)C(=O)N(C)[C@@H](CC(C)C)C(=O)N(C)[C@@H](C(C)C)C(=O)N1C`
### Response 1000

* * *

experiment: AUC in dog blood at 1 mg/kg, po after 72 hrs; assay type: ADME, organism-based, Canis lupus familiaris; parameters: time < 72 hr, dose 1 mg/kg, route oral; conditions: whole blood
measure_name: AUC at 72 h (µM·h)
Report only the number, with the unit µM·h understood.

### Prompt What does the data say about its AUC at 72 h? Entry: `C/C=C/C[C@@H](C)[C@@H](O)[C@H]1C(=O)N[C@@H](CC)C(=O)N(C)[C@H](C)C(=O)N(C)[C@@H]([C@@H](C)CN2CCN(CCOC)CC2)C(=O)N[C@@H](C(C)C)C(=O)N(C)[C@@H](CC(C)C)C(=O)N[C@@H](C)C(=O)N[C@H](C)C(=O)N(C)[C@@H](CC(C)C)C(=O)N(C)[C@@H](CC(C)C)C(=O)N(C)[C@@H](C(C)C)C(=O)N1C`
### Response 22.1

Shift focus to the following entry.
### Prompt What does the data say about its AUC at 72 h? Entry: C/C=C/C[C@@H](C)[C@@H](O)[C@H]1C(=O)N[C@@H](CC)C(=O)N(C)[C@H](C)C(=O)N(CC)[C@@H](C(C)C)C(=O)N[C@@H](C(C)C)C(=O)N(C)[C@@H](CC(C)C)C(=O)N[C@@H](C)C(=O)N[C@H](C)C(=O)N(C)[C@@H](CC(C)C)C(=O)N(C)[C@@H](CC(C)C)C(=O)N(C)[C@@H](C(C)C)C(=O)N1C [ALISPORIVIR]
### Response 2.19
